# Tested on: EKVX
# assay notes: NCI tumour cell line growth inhibition, 48 h
The source made the active and inactive calls. No stated cut-off is given here; in the data, active = GI50 up to about 1.1 µM and inactive = higher.
# output must be one of y = active, n = inactive

Problem: Called result for `Nc1nc(Cl)cc(OCC2(CO)CCCC2)n1`
Solution: n

Problem: Called result for `Cc1nc2c(O)cc3c4c([nH]c3c2nc1C)C(=O)CCC4`
Solution: n

Problem: Called result for COc1cc2c(cc1OC)C13CCN4CC5=CCOC(CC(=O)O)C(C5CC41)C3N2 (stereo not given)
Solution: n

Problem: Called result for COc1c2c(c3ccccc3c1O)C1C=CC2C1 (stereo not given)
Solution: n

Problem: Called result for `C1CN2CCO[SiH](O1)OCC2`
Solution: n

Problem: Called result for `C/C(N)=N/OCc1nc(C)no1`
Solution: n

Problem: Called result for `O=C1CC[C@@H](NC(=O)Cc2ccccc2)C(=O)N1`
Solution: n

Problem: Called result for COc1ccc(C(OCC2OC(n3cnc4c(=O)n(Cc5ccccc5[N+](=O)[O-])nnc43)C(O)C2O)(c2ccccc2)c2ccc(OC)cc2)cc1 (stereo not given)
Solution: n

Problem: Called result for `CN(C)CCNCCCNc1c2ccccc2nc2cccc([N+](=O)[O-])c12`
Solution: y

Problem: Called result for `COC(=O)C[C@@H]1C(C)(C)[C@@H]2O[C@@]34C[C@@H]2C(=O)[C@]1(C)[C@H]3CC[C@@]1(C)[C@H](c2ccoc2)OC(=O)C[C@]14O`
Solution: n

====

Could you please report measured GI50 for the items listed next?
# Test system: NCI-H23
# assay notes: NCI tumour cell line growth inhibition, 48 h
Calls of active or inactive are those of the source. Rule as the data show it: active = GI50 up to about 1.1 µM and inactive = higher.

Problem: Observed GI50 on NCI-H23 for `CC(=O)Nc1ccc(S(=O)(=O)Nc2cnc3ccccc3n2)cc1` , please.
Solution: > 100 µM (inactive)

Problem: Observed GI50 on NCI-H23 for `COc1cccc2ccc(C(=O)c3ccccc3)nc12` , please.
Solution: > 100 µM (inactive)

Problem: Observed GI50 on NCI-H23 for `COc1cc(S(=O)(=O)Nc2ccc(-c3csc(/N=C\c4cccc(Oc5ccccc5)c4)n3)cc2)ccc1Cl` , please.
Solution: 45.9 µM (inactive)

Problem: Observed GI50 on NCI-H23 for CC(C)/C=C1\CCC(CN2CCCC2)C1=O (stereo not given) , please.
Solution: 16.7 µM (inactive)

Problem: Observed GI50 on NCI-H23 for `CC(=N/NC(=S)Nc1c(C)n(C)n(-c2ccccc2)c1=O)/C(C)=N\NC(=S)Nc1c(C)n(C)n(-c2ccccc2)c1=O` , please.
Solution: > 100 µM (inactive)

====

# Tested on: NCI-H226
# assay notes: NCI tumour cell line growth inhibition, 48 h
Calls of active or inactive are those of the source. No stated cut-off is given here; in the data, active = GI50 up to about 1.1 µM and inactive = higher.
quantity: GI50

Problem: Observed GI50 on NCI-H226 for `CC(=O)N[C@@H](Cc1ccc(O)cn1)C(=O)NCc1cccc(Cl)c1` , please.
Solution: > 100 µM (inactive)

Problem: Observed GI50 on NCI-H226 for CCCNC(=O)CCC(C)[C@H]1CCC2C3C(C[C@H](OC(C)=O)[C@@]21C)[C@@]1(C)CCC2(C[C@H]1C[C@H]3OC(C)=O)OOC1(CCCCC1)OO2 (stereo partly specified) , please.
Solution: 3.84 µM (inactive)

Problem: Observed GI50 on NCI-H226 for CC1=NC2(CCCCC2)N(Cl)C(=O)C1SC#N (stereo unspecified) , please.
Solution: 24 µM (inactive)

Problem: Observed GI50 on NCI-H226 for Cc1ccc(C)c(NC(=O)CC/C(=N\NC(=O)C(=O)NN)C(C)C(=O)c2ccc(O)cc2)c1 (stereo unspecified) , please.
Solution: > 100 µM (inactive)

Problem: Observed GI50 on NCI-H226 for `O=C(/C=C/c1ccccc1)c1ccc(NCc2nc3ccccc3[nH]2)cc1` , please.
Solution: 4.19 µM (inactive)

Problem: Observed GI50 on NCI-H226 for `O=C(OCc1nc2ccc(Br)cc2c(=O)n1-c1ccccc1)c1ccccc1O` , please.
Solution: 57.5 µM (inactive)

Problem: Observed GI50 on NCI-H226 for Nc1nc(N)c2ncn(CC3CCC(CO)C3)c2n1 (stereo unspecified) , please.
Solution: > 100 µM (inactive)

Problem: Observed GI50 on NCI-H226 for `O=C(C#Cc1cnc(O)nc1O)c1ccccc1` , please.
Solution: 24.8 µM (inactive)

Problem: Observed GI50 on NCI-H226 for `O=C(O)[C@@H]1NC[C@H]2C(Br)=NO[C@H]21` , please.
Solution: > 100 µM (inactive)

Problem: Observed GI50 on NCI-H226 for `O=C(OCCNC(=O)N1CC1)OCCNC(=O)N1CC1` , please.
Solution: > 10 µM (inactive)

Problem: Observed GI50 on NCI-H226 for Cc1nn(C(=O)Cc2ccccc2)c2c1C(c1ccc(O)cc1)SC(=N)N2 (stereo unspecified) , please.
Solution: > 100 µM (inactive)
